Molecular target: Tyrosyl-tRNA synthetase, putative (Trypanosoma cruzi (strain CL Brener)) (UniProt Q4DSP6)
Sequence (Q4DSP6 as listed by the source): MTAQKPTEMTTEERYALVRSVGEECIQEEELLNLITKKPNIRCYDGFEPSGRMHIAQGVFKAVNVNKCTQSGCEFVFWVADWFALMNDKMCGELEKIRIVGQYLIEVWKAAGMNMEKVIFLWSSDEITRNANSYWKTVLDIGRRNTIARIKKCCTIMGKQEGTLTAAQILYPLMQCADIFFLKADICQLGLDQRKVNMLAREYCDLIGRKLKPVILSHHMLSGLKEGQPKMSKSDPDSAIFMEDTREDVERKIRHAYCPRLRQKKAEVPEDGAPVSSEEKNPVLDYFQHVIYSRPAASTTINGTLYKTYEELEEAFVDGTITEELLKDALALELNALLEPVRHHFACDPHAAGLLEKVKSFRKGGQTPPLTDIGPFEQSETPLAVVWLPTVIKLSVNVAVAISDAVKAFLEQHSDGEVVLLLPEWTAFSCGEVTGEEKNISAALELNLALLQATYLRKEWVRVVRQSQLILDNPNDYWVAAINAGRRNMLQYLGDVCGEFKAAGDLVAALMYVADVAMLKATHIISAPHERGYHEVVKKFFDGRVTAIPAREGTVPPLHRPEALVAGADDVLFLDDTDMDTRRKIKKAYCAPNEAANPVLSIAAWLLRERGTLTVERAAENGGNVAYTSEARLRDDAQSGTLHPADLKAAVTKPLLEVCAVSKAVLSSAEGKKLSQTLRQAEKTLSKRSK
Assay: Trypanosoma cruzi tyrosyl tRNA synthetase (TcYRS) SOP
Assay type: functional
Parameters: scale not given: direction of the effect not stated beside the values
Conditions: 30 µM
observed_property: Percent Effect (%)
Give the quantity in %, number only.

Example results:
Cc1noc(C)c1CCC(=O)N1CCN(CCn2cccn2)CC1	17.5
CCN1CCC2(CC1)CC(NC(=O)NC)c1cc(C)ccc12 (stereo not given)	7.5
COCC1CC2(CCN(C(=O)c3cccc(C)c3)CC2)CO1 (stereo not given)	-3.85
Cc1ncsc1C(=O)N1CCCN(Cc2cscn2)CC1	9.41
Cc1cnn(CC(C)NCc2csc(-c3ccsc3)n2)c1 (stereo not given)	12.7

(Q) # get_value(readout= Percent Effect, system= Tyrosyl-tRNA synthetase, putative (Trypanosoma cruzi (strain CL Brener)) (UniProt Q4DSP6)) for "CCCOc1cc(CNC(=O)Nc2cccnc2N2CCCC2)ccn1"
(A) 3.7

(Q) // same read-out, input: O=C(Nc1ccccc1)C1CN(CC2CC2)CC12CCOCC2 (stereo not given)
(A) -10

(Q) // same read-out, input: "CCn1nc(C)c(CCn2ccnc2-c2cc3n(n2)CCCNC3)c1C"
(A) 8.64

(Q) // same read-out, input: "O=C(NC[C@]12COC[C@H]1CN(Cc1nccs1)C2)c1ccccc1"
(A) 7.69

Reference source for all entries: ChEMBL document CHEMBL3988442
